# credit: paper PMC5540273

System: PRKG2
Conditions: concentration: 1 μM, replicates: in singlicate; n = 1;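 note: KINOMEscan kinase panel screen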
In this section we review reported %Inh values for a set of molecules.

molecule	%Inh [%]
Cc1ccc(C)c(NC(=O)NC2CCN(c3ccnc(Nc4ccc(F)cc4)n3)C2)c1 (stereo not shown) [GSK1379720]	0
Cn1cc(-c2ccc3c(c2)CCN3C(=O)Cc2cccc(F)c2)c2c(N)ncnc21 [GSK2603358]	4
C[C@@H]1CC[C@@H](C(=O)Nc2ccccc2)CN1c1cc(-c2ccc3c(N)n[nH]c3c2)nc(N)n1 [GSK2286062]	0
Cc1ccc(S(=O)(=O)Nc2ccc(Nc3nccc(Nc4cccc5[nH]ncc45)n3)cc2)cc1 [GSK581271]	5
CC(C)c1nc(-c2cccc(NS(=O)(=O)c3c(F)cccc3F)c2F)c(-c2ccnc(Nc3ccc(N4CCOCC4)nc3)n2)s1 [GSK2008607]	0
O=C(Nc1cccc(-c2nn3ccccc3c2-c2ccnc(Nc3cccc(F)c3)n2)c1)c1c(F)ccc(F)c1Cl [GSK357952]	1
CN(C)Cc1ccc(-c2ccc3c(Nc4ccc(Oc5ccccn5)cc4)ccnc3c2)o1 [GW567148]	0
O=C(Nc1cccc(-c2nn3ccccc3c2-c2ccnc(Nc3cccc(C(F)(F)F)c3)n2)c1)c1c(F)cccc1F [GSK292658]	0
CC(=O)N1CCN(c2ccc(Nc3nccc(-c4sc(C(C)C)nc4-c4cccc(NS(=O)(=O)c5cccc(Cl)c5)c4)n3)cn2)CC1 [GSK1660437]	0
CN1CCN(Cc2cccc(-c3ccc4c(Nc5ccc(Oc6ccccc6)cc5)ccnc4c3)c2)CC1 [GW578342]	0
Cc1ccc(F)c(C(=O)Nc2cccc(-c3nn4ccccc4c3-c3ccnc(Nc4cccc(F)c4)n3)c2)c1F [GSK361061]	0
COc1cccc(-c2ccc3c(NC(=O)C4CC4)n[nH]c3n2)c1 [SB-710903]	0
CN(c1ccc(NC(=O)Nc2cc(C(F)(F)F)ccc2F)cc1)c1ccnc(Nc2ccc(S(N)(=O)=O)cc2)n1 [GW809893]	17

====

Tested on: PLK1
Details: concentration: 1 μM, replicates: in singlicate; n = 1

sample_smiles	%Inh
COc1cccc(-c2ccc3c(NC(=O)C4CC4)n[nH]c3n2)c1	0%
Cn1cc(-c2[nH]c3cc(NC(=O)[C@H](N)C4CCCCC4)cc4c3c2C=NNC4=O)cn1	0%
CC(C)(C)c1ccc2nccc(Nc3cccc(O)c3)c2c1	0%
CC(=O)N1CCN(c2ccc(Nc3nccc(-c4sc(C(C)C)nc4-c4cccc(NS(=O)(=O)c5cccc(Cl)c5)c4)n3)cn2)CC1	0%
Cc1ccc(C(=O)Nc2ccc(Nc3ccnc4cc(-c5nccs5)ccc34)cc2O)cc1.Cl	1%

====

In this section we review reported %Inh values for a set of compounds.
System: LRRK2
Conditions: concentration: 1 μM, replicates: in singlicate; n = 1
metric_name: %Inh (%)

compound	metric_name	result
COc1ccc(Nc2nccc(N3CCC(NC(=O)Nc4cccc(OC)c4)C3)n2)cc1 (stereo not shown) [GSK1379742]	%Inh	14
COC(=O)Nc1nc2ccc(Oc3ccc(NC(=O)Nc4cc(C(F)(F)F)ccc4F)cc3)cc2n1C.Cl [GW692089]	%Inh	1
Cc1ccc(F)c(C(=O)Nc2cccc(-c3nn4ccccc4c3-c3ccnc(Nc4cccc(F)c4)n3)c2)c1F [GSK361061]	%Inh	6
O=C(Nc1cccc(Oc2ccc3nc(NC(=O)C4CC4)cn3n2)c1)c1ccccc1C(F)(F)F	%Inh	0
C[C@@H]1CC[C@@H](C(=O)Nc2ccccc2)CN1c1cc(-c2ccc3c(N)n[nH]c3c2)nc(N)n1 [GSK2286062]	%Inh	0
O=C(Nc1cccc(-c2nn3ccccc3c2-c2ccnc(Nc3cccc(F)c3)n2)c1)c1c(F)ccc(F)c1Cl [GSK357952]	%Inh	32
CC(=O)Nc1nc2cnc(Nc3cc(NC(=O)c4cccc(C5(C#N)CC5)c4Cl)ccc3C)nc2s1	%Inh	0
